assay: Phase 1 multiple-dose pharmacokinetics (PN002/Part II); conditions: human, plasma, 12 mg
reported.endpoint: half-life (h)
Answers are plain numbers, in h.

>>> print(df.to_string())
                                smiles_data  result_units  readout_number
0  C=C(C)c1ccc(CC(=O)N[C@H](C)c2ccc(OCC(F)(F)F)cn2)cc1             h            22.6

Query compound follows.
[in] Any idea what half-life was measured for C[C@@H](NC(=O)Cc1ccc(C(C)(C)O)cc1)c1ccc(OCC(F)(F)F)cn1 ?
[out] 14.5

====

assay: in vivo; conditions: male, Beagle, dog, in vivo, po, 3 mg/kg/day
reported.endpoint: Cmax (µM)
Answers are plain numbers, in µM.

[in] Any idea what Cmax was measured for CC(C)c1ccc(CC(=O)N[C@H](C)c2ccc(OCC(F)(F)F)cn2)cc1 ?
[out] 8.4
